Biological target: hGcgR (Homo sapiens, UniProt P47871)
Sequence (P47871 26-477): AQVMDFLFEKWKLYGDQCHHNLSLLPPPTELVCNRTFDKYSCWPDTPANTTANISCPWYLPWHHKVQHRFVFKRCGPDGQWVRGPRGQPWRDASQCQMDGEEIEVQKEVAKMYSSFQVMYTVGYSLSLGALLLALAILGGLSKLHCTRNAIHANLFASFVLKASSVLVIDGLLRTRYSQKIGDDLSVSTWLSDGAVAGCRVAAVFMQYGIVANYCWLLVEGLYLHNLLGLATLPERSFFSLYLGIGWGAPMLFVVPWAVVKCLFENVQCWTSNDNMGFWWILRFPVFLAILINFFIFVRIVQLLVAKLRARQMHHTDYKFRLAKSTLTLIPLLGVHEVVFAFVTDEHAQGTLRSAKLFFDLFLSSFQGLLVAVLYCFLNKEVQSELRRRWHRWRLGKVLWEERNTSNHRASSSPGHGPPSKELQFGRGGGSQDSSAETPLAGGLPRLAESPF
Assay: Functional cAMP activation in the presence of 0.1% casein (no HSA);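 for Relative cAMP EC50, hGcgR: intracellular cAMP rise after 30 min at 37 °C, read by HTRF against a cAMP standard curve, scaled from buffer only (0%) to maximal control ligand response (100%)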
Type: cell-based
Conditions: in the presence of 0.1% casein (no HSA); geometric mean; read-out: Relative cAMP EC50, hGcgR
pEC50: −log10 of the molar value. Starred links: 1 amine or outer side, 2 acyl side, 3 side chain; linkers in the order of their positions; H or OH if unused. Non-standard residues stand in square brackets, D forms with d. Groups on a side chain read outwards from the residue. No end group written: not given here. *: point of attachment. C20 diacid = O=C(O)CCCCCCCCCCCCCCCCCCC(=O)*; C18 diacid = O=C(O)CCCCCCCCCCCCCCCCC(=O)*; αMePhe(2-F) = C[C@](N)(Cc1ccccc1F)C(=O)O; γGlu = O=C(O)[C@H](CCC(=O)[*:2])N[*:1]; αMe4Pal = C[C@](N)(Cc1ccncc1)C(=O)O; αMeY = C[C@](N)(Cc1ccc(O)cc1)C(=O)O; 4Pal = N[C@@H](Cc1ccncc1)C(=O)O; αMeL = CC(C)C[C@](C)(N)C(=O)O; αMeS = C[C@](N)(CO)C(=O)O; Orn = NCCC[C@H](N)C(=O)O; AEEA = NCCOCCOCC(=O)O; Aib = CC(C)(N)C(=O)O

{"substance": "H-Y[Aib]QGTFTSDFS[Orn][αMeL]LDKK([AEEA-γGlu-C18 diacid])AQ[Aib]AFIEYLLEGGPSSGAPPPEGT-NH2 [Example 160]", "pEC50": 8.36}
{"substance": "Y[Aib]QGT[αMePhe(2-F)]TSD[4Pal][αMeS]I[αMeL]LD[Orn]K([AEEA-γGlu-C18 diacid])AQ[αMe4Pal]EFI[dE][αMeY]LIEGGPSSGEPPPESE-NH2 [Example 1147]", "pEC50": 8.93}
{"substance": "H-Y[Aib]QGTFTSDFSK[αMeL]LDKK([AEEA-γGlu-C20 diacid])AQ[Aib]AFIEWLIEGGPSSGAPPPSEG-NH2 [Example 40]", "pEC50": 7.91}
{"substance": "H-Y[Aib]QGTFTSDFS[Orn][αMeL]LDKK([AEEA-AEEA-γGlu-C18 diacid])AQ[Aib]AFIEYLLE[Aib]GHSSGAPPPSGT-NH2 [Example 182]", "pEC50": 8.27}
{"substance": "H-Y[Aib]QGTFTSD[4Pal]SR[αMeL]LDKK([AEEA-γGlu-C18 diacid])AQ[Aib]AFIEYLIE[Aib]GESSGAPPPSGS-NH2 [Example 187]", "pEC50": 7.83}
{"substance": "H-Y[Aib]QGTFTSDYSI[αMeL]LDKQAAK([AEEA-AEEA-γGlu-C20 diacid])QFIEWLIEGGPSSGEPPPGEG-NH2 [Example 318]", "pEC50": 8.30}

----------
Items are presented alongside their recorded EC50.
Target: hGLP-1R (Homo sapiens)
Sequence (P43220 24-463): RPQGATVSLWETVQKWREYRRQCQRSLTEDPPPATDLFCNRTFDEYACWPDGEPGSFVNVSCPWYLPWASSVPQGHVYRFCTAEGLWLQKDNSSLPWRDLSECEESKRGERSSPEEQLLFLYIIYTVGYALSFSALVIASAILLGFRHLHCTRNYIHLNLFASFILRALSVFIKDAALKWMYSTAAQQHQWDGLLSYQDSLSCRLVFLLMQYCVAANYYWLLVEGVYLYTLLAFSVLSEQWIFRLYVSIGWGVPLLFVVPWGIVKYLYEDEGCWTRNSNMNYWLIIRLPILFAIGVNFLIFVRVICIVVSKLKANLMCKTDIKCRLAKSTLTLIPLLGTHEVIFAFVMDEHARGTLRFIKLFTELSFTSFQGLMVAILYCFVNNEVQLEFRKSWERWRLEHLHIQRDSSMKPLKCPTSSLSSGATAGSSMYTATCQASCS
Assay: Functional cAMP activation in the presence of 0.1% casein (no HSA);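 note: intracellular cAMP rise after 30 min at 37 °C read by HTRF, normalized between buffer only (0%) and maximal control ligand (100%), four-parameter variable-slope fit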
Assay type: cell-based
Details: in the presence of 0.1% casein (no HSA); geometric mean; read-out: Relative cAMP EC50, hGLP-1R
Starred links: 1 amine or outer side, 2 acyl side, 3 side chain; linkers in the order of their positions; H or OH if unused. Non-standard residues stand in square brackets, D forms with d. Groups on a side chain read outwards from the residue. No end group written: not given here. *: point of attachment. C18 diacid = O=C(O)CCCCCCCCCCCCCCCCC(=O)*; γGlu = O=C(O)[C@H](CCC(=O)[*:2])N[*:1]; αMe4Pal = C[C@](N)(Cc1ccncc1)C(=O)O; αMeY = C[C@](N)(Cc1ccc(O)cc1)C(=O)O; 4Pal = N[C@@H](Cc1ccncc1)C(=O)O; αMeL = CC(C)C[C@](C)(N)C(=O)O; Orn = NCCC[C@H](N)C(=O)O; AEEA = NCCOCCOCC(=O)O; Aib = CC(C)(N)C(=O)O

{"substance": "Y[Aib]QGTFTSD[4Pal]SQ[αMeL]LDKK([Glu-γGlu-C18 diacid])AQ[αMe4Pal]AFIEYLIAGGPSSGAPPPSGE-NH2 [Example 1086]", "target.system": "hGLP-1R (Homo sapiens)", "EC50 (nM)": 1.23}
{"substance": "H-Y[Aib]QGTFTSD[4Pal]S[Orn][αMeL]LDKK([γGlu-γGlu-C18 diacid])AQ[αMe4Pal]AFIE[αMeY]LIEGGPSSGAPPPSGSEE-NH2 [Example 967]", "target.system": "hGLP-1R (Homo sapiens)", "EC50 (nM)": 1.75}
{"substance": "H-Y[Aib]QGTFTSD[4Pal]SQ[αMeL]LDKK([AEEA-γGlu-γGlu-C18 diacid])AQ[αMe4Pal]AFIEYLIE[Aib]GPSSGAPPPSGS-NH2 [Example 860]", "target.system": "hGLP-1R (Homo sapiens)", "EC50 (nM)": 3.95}
{"substance": "H-Y[Aib]QGTFTSDFS[Orn][αMeL]LDKK([AEEA-γGlu-C18 diacid])AQ[Aib]AFIEYLLE[Aib]GPSS[Aib]APPPSGS-NH2 [Example 238]", "target.system": "hGLP-1R (Homo sapiens)", "EC50 (nM)": 2.71}
{"substance": "Y[Aib]QGTFTSD[4Pal]SQ[αMeL]LDKK([AEEA-γGlu-C18 diacid])AQ[αMe4Pal]AFIEWLIEGGPSSGAPPPSG[4Pal]-NH2 [Example 832]", "target.system": "hGLP-1R (Homo sapiens)", "EC50 (nM)": 1.07}
{"substance": "H-Y[Aib]QGTFTSDFS[Orn][αMeL]LDKK([AEEA-AEEA-γGlu-C18 diacid])AQ[Aib]AFIEYLLE[Aib]GPSSGEPPPSGT-NH2 [Example 167]", "target.system": "hGLP-1R (Homo sapiens)", "EC50 (nM)": 6.19}
